Multiple publications report IC50 for Tyrosine-protein kinase JAK2 (Homo sapiens, UniProt O60674); what follows is a combined list.

CC(C)S(=O)(=O)C1CCN(Cc2ccc(-c3cccc4nc(NC(=O)C5CC5)cn34)cc2)CC1 = 448 nM
O=C(CN1CCN(c2nc[nH]c3nccc2-3)CC1)Nc1ccc(/N=N/c2ccccc2)cc1 = > 1000 nM
C[C@@H](O)c1nc2cnc3[nH]ccc3c2n1C1CCN(S(=O)(=O)c2ccccc2F)C1 (stereo partly shown) = 100 to 1000 nM
N#C[C@H]1CC[C@H](n2c(-c3ccc(O)cc3F)nc3cnc4[nH]ccc4c32)CC1 (stereo in doubt) = 100 to 1000 nM
O=C(NCC(F)(F)F)N1CCC(n2c(-c3ccc(CO)o3)nc3cnc4[nH]ccc4c32)C1 (stereo in doubt) = 100 to 1000 nM
CS(=O)(=O)c1ccc(C2Nc3cnc4[nH]ccc4c3N2C2CCN(CCC#N)C2)cc1 (stereo not shown) = 10 to 100 nM

Now consider the entry below.
Bench note, Tyrosine-protein kinase JAK2 (Homo sapiens, UniProt O60674): N#CCC1CCN(n2c(/N=N/c3ccc(O)c(C(=O)O)c3)nc3cnc4[nH]ccc4c32)CC1 , IC50 reads 0.27 nM
